Give measured interaction score for each item. Keep answers brief.
Target: T1, 4H2717-bA
T1 chain: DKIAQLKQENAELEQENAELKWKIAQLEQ
Experiment: two-hybrid library CCNG1;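 further: natural log of median RNA to DNA barcode read ratio; higher means stronger binding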

// lookup interaction score for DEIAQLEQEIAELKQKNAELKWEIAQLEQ [4H121-bA]
-0.497

// lookup interaction score for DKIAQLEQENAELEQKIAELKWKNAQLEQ [4H2223-bA]
-0.279

// lookup interaction score for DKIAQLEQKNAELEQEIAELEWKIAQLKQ [4H2438-bA]
-0.288

// lookup interaction score for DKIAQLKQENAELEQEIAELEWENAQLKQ [4H2692-bA]
-0.0486

// lookup interaction score for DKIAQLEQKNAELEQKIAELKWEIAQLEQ [4H2473-bA]
-0.42

// lookup interaction score for DKIAQLKQENAELEQENAELKWKIAQLEQ [4H2717-bA]
1.02

Each recorded value in this set is attributed to paper PMC10397247.
